# Test system: 624824-186-R-J3-PDC multicell spheroids, viability;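 note: luminescent signal used as a stand-in for spheroid viability; spheroids exposed to agents for seven days before luminescence read; percent viability relative to DMSO vehicle control wells taken as 100%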
# method_summary: Anticancer human tumor 624824-186-R-J3-PDC patient-derived colon adenocarcinoma cell line growth inhibition [PI3K]
# condition_notes: second compound 0.00316 µM; first compound 0.316 µM; stronger effect = lower value
observation_type: viability, T/C (%)
Enter your answer as a number in %; do not include the unit.

*Q* What value of viability, T/C has been recorded for this entry: Cn1nccc1Nc1nccc(-c2ccn(C(CO)c3ccc(Cl)c(F)c3)c(=O)c2)n1 (stereo not given) + COc1c(OCCCN2CCOCC2)ccc2c3n(c(=NC(=O)c4cnc(N)nc4)nc12)CCN3
*A* 100

*Q* What value of viability, T/C has been recorded for this entry: CCN1CCN(Cc2ccc(Nc3ncc(F)c(-c4cc(F)c5nc(C)n(C(C)C)c5c4)n3)nc2)CC1 + CC(Nc1ccc2c(c1)OCCn1cc(N3C(=O)OCC3C(F)F)nc1-2)C(N)=O
*A* 93.2

*Q* What value of viability, T/C has been recorded for this entry: C#Cc1c(F)ccc2cc(O)cc(-c3ncc4c(N5CC6CCC(C5)N6)nc(OCC56CCCN5CC(F)C6)nc4c3F)c12 (stereo not given) + CC(Nc1ccc2c(c1)OCCn1cc(N3C(=O)OCC3C(F)F)nc1-2)C(N)=O
*A* 100

*Q* What value of viability, T/C has been recorded for this entry: CNC(=O)c1ccc(N2C(=S)N(c3ccc(C#N)c(C(F)(F)F)c3)C(=O)C2(C)C)cc1F + COc1c(OCCCN2CCOCC2)ccc2c3n(c(=NC(=O)c4cnc(N)nc4)nc12)CCN3
*A* 114

*Q* What value of viability, T/C has been recorded for this entry: C=CC(=O)N1CCN(c2nc(=O)n(-c3c(C)ccnc3C(C)C)c3nc(-c4c(O)cccc4F)c(F)cc23)C(C)C1 (stereo not given) + CC(Nc1ccc2c(c1)OCCn1cc(N3C(=O)OCC3C(F)F)nc1-2)C(N)=O
*A* 98.8

*Q* What value of viability, T/C has been recorded for this entry: CCN1CCN(Cc2ccc(Nc3ncc(F)c(-c4cc(F)c5nc(C)n(C(C)C)c5c4)n3)nc2)CC1 + COc1c(OCCCN2CCOCC2)ccc2c3n(c(=NC(=O)c4cnc(N)nc4)nc12)CCN3
*A* 107

*Q* What value of viability, T/C has been recorded for this entry: CNC(=O)c1ccc(N2C(=S)N(c3ccc(C#N)c(C(F)(F)F)c3)C(=O)C2(C)C)cc1F + CC(Nc1ccc2c(c1)OCCn1cc(N3C(=O)OCC3C(F)F)nc1-2)C(N)=O
*A* 104

*Q* What value of viability, T/C has been recorded for this entry: CC1(C)CCC(CN2CCN(c3ccc(C(=O)NS(=O)(=O)c4ccc(NCC5CCOCC5)c([N+](=O)[O-])c4)c(Oc4cnc5[nH]ccc5c4)c3)CC2)=C(c2ccc(Cl)cc2)C1 + COc1c(OCCCN2CCOCC2)ccc2c3n(c(=NC(=O)c4cnc(N)nc4)nc12)CCN3
*A* 111

*Q* What value of viability, T/C has been recorded for this entry: CC(C)NCC(C(=O)N1CCN(c2ncnc3c2C(C)CC3O)CC1)c1ccc(Cl)cc1 (stereo not given) + CC(Nc1ccc2c(c1)OCCn1cc(N3C(=O)OCC3C(F)F)nc1-2)C(N)=O
*A* 97.7

*Q* What value of viability, T/C has been recorded for this entry: C#Cc1c(F)ccc2cc(O)cc(-c3ncc4c(N5CC6CCC(C5)N6)nc(OCC56CCCN5CC(F)C6)nc4c3F)c12 (stereo not given) + COc1c(OCCCN2CCOCC2)ccc2c3n(c(=NC(=O)c4cnc(N)nc4)nc12)CCN3
*A* 114
